Reported fraction of intact chelate by item:
# assay comment: Dissociation of chelates in aq. 0.1M HCl at 80° C. (acid decomplexation kinetic inertness) (Chart 19)
# Type: physicochemical
# details: 1 month
Provide only the numeric value, understood in %.

line notation: O=C1C[N@@]2CC[N@]3CC[N@@](CC[N@](CC2)Cc2cccc(n2)-c2cnnn2Cc2cc(-c4ccccc4)cc(n2)C3)CC(=O)[O][Ce][O]1
readout unit: %
fraction of intact chelate: 0
--
line notation: O=C([O-])CN1CCN2CCN(CC(=O)[O-])CCN(CC1)Cc1cccc(n1)-c1cnnn1Cc1cc(-c3ccccc3)cc(n1)C2.[Ca+2]
readout unit: %
fraction of intact chelate: 0
--
line notation: O=C1C[N@@]2CC[N@]3CC[N@@](CC[N@](CC2)Cc2cccc(n2)-c2cnnn2Cc2cc(-c4ccccc4)cc(n2)C3)CC(=O)[O][Sm][O]1
readout unit: %
fraction of intact chelate: 1
--
line notation: O=C1C[N@@]2CC[N@]3CC[N@@](CC[N@](CC2)Cc2cccc(n2)-c2cnnn2Cc2cc(-c4ccccc4)cc(n2)C3)CC(=O)[O][Eu][O]1
readout unit: %
fraction of intact chelate: 21

-- ask Field request: fraction of intact chelate | item: O=C([O-])CN1CCN2CCN(CC(=O)[O-])CCN(CC1)Cc1cccc(n1)-c1cnnn1Cc1cc(-c3ccccc3)cc(n1)C2.[Zn+2]
-- reply 0

-- ask So what's the measured fraction of intact chelate for this one? O=C1C[N@@]2CC[N@]3CC[N@@](CC[N@](CC2)Cc2cccc(n2)-c2cnnn2Cc2cc(-c4ccccc4)cc(n2)C3)CC(=O)[O][Dy][O]1
-- reply 100

###

# assay comment: Formation of 1,5-cz-[Ln(Lig)] from Lig and Ln^III ions (metal dependent click-zip), MOPS/NaOH buffer pH 7.0, analytical HPLC (Charts 1, 2)
# details: Lu^III; after 1 hour at 80° C.; MOPS/NaOH buffer pH 7.0
measured property: conversion to 1,5-cz-[Ln(Lig)], Lu^III (%)
// units = %; emit number, no label

-- ask Name the recorded conversion to 1,5-cz-[Ln(Lig)], Lu^III for C#Cc1cccc(CN2CCN(CC(=O)O)CCN(Cc3cccc(CN=[N+]=[N-])n3)CCN(CP(=O)(O)O)CC2)n1 .
-- reply 37

-- ask Could you share which conversion to 1,5-cz-[Ln(Lig)], Lu^III value was measured for [N-]=[N+]=NCc1cc(-c2ccccc2)cc(CN2CCN(CC(=O)O)CCN(Cc3cccc(C#CCN)n3)CCN(CC(=O)O)CC2)n1 ?
-- reply 49

-- ask Can you look up the measured conversion to 1,5-cz-[Ln(Lig)], Lu^III of C#CCNC(=O)CN1CCN(CC(=O)O)CCN(Cc2cc(-c3ccccc3)cc(CN=[N+]=[N-])n2)CCN(CC(=O)O)CC1 for me?
-- reply 0

###

# assay comment: Formation of 1,5-cz-[M(Lig)] from Lig and M^III ions (metal dependent click-zip) (Charts 4, 5)
# Format: physicochemical
# details: 1 week at 80° C.; MOPS/NaOH buffer pH 7.0; TD728, TD827 in 50% i-PrOH
measured property: conversion to 1,5-cz-[M(Lig)], Sc^III (%)
Report only the number, with the unit % understood.

Please review the following examples before continuing.
line notation: [N-]=[N+]=NCc1cc(-c2ccccc2)cc(CN2CCN(CC(=O)O)CCN(Cc3cccc(C#CCN)n3)CCN(CC(=O)O)CC2)n1
measured property: conversion to 1,5-cz-[M(Lig)], Sc^III
assay result: 14

line notation: C#CCN(CC#C)CCN1CCN(CC(=O)O)CCN(Cc2cc(-c3ccccc3)cc(CN=[N+]=[N-])n2)CCN(CC(=O)O)CC1
measured property: conversion to 1,5-cz-[M(Lig)], Sc^III
assay result: 0

line notation: C#Cc1cccc(CN2CCN(CC(=O)NCC(=O)O)CCN(Cc3cc(-c4ccccc4)cc(CN=[N+]=[N-])n3)CCN(CC(=O)NCC(=O)O)CC2)n1
measured property: conversion to 1,5-cz-[M(Lig)], Sc^III
assay result: 0

line notation: CC(C)(N)C#Cc1cccc(CN2CCN(CC(=O)O)CCN(Cc3cc(-c4ccccc4)cc(CN=[N+]=[N-])n3)CCN(CC(=O)O)CC2)n1
measured property: conversion to 1,5-cz-[M(Lig)], Sc^III
assay result: 61

line notation: C#Cc1cccc(CN2CCN(CC(=O)O)CCN(Cc3cc(C(F)(F)F)cc(CN=[N+]=[N-])n3)CCN(CC(=O)O)CC2)n1
measured property: conversion to 1,5-cz-[M(Lig)], Sc^III
assay result: 8

line notation: C#Cc1cccc(CN2CCN(CC(=O)O)CCN(Cc3cc(C(=O)OC)cc(CN=[N+]=[N-])n3)CCN(CC(=O)O)CC2)n1
measured property: conversion to 1,5-cz-[M(Lig)], Sc^III
assay result: 0

line notation: CC(C)(C#Cc1cccc(CN2CCN(CC(=O)O)CCN(Cc3cccc(CN=[N+]=[N-])n3)CCN(CC(=O)O)CC2)n1)NC(=O)OC(C)(C)C
measured property: conversion to 1,5-cz-[M(Lig)], Sc^III
assay result: 0

line notation: [N-]=[N+]=NCc1cccc(CN2CCN(CC(=O)O)CCN(Cc3cccc(C#CC4CCNCC4)n3)CCN(CC(=O)O)CC2)n1
measured property: conversion to 1,5-cz-[M(Lig)], Sc^III
assay result: 29

-- ask # conversion to 1,5-cz-[M(Lig)], Sc^III lookup, item C#Cc1cccc(CN2CCN(CCC(=O)O)CCN(Cc3cccc(CN=[N+]=[N-])n3)CCN(CCC(=O)O)CC2)n1
-- reply 0

-- ask Look up conversion to 1,5-cz-[M(Lig)], Sc^III: C#Cc1cccc(CN2CCN(CP(=O)(O)OCC)CCN(Cc3cccc(CN=[N+]=[N-])n3)CCN(CP(=O)(O)OCC)CC2)n1
-- reply 0

-- ask Report conversion to 1,5-cz-[M(Lig)], Sc^III for C#Cc1cccc(CN2CCN(CC(=O)O)CCN(Cc3cc(Cl)cc(CN=[N+]=[N-])n3)CCN(CC(=O)O)CC2)n1 please.
-- reply 5

-- ask I would be grateful if you could share the reported conversion to 1,5-cz-[M(Lig)], Sc^III for [N-]=[N+]=NCc1cccc(CN2CCN(CC(=O)O)CCN(Cc3cccc(C#Cc4ccccc4)n3)CCN(CC(=O)O)CC2)n1 .
-- reply 4

-- ask Which conversion to 1,5-cz-[M(Lig)], Sc^III is listed for CC(C)[Si](C#Cc1cccc(CN2CCN(CC(=O)O)CCN(Cc3cccc(CN=[N+]=[N-])n3)CCN(CC(=O)O)CC2)n1)(C(C)C)C(C)C ?
-- reply 2

###

# assay comment: Formation of 1,5-cz-[Ln(Lig)] from Lig and Ln^III ions (metal dependent click-zip), MOPS/NaOH buffer pH 7.0, analytical HPLC (Charts 1, 2)
# details: Ho^III; after 1 hour at 80° C.; MOPS/NaOH buffer pH 7.0
Measured conversion to 1,5-cz-[Ln(Lig)], Ho^III by item
Return type: number; implicit unit %.

Sample answers from the record:
line notation: [N-]=[N+]=NCc1cc(-c2ccccc2)cc(CN2CCN(CC(=O)O)CCN(Cc3cccc(C#CCN)n3)CCN(CC(=O)O)CC2)n1
assay result: 9
--
line notation: C#Cc1cccc(CN2CCN(CC(=O)O)CCN(Cc3cc(-c4ccc(C(=O)O)cc4)cc(CN=[N+]=[N-])n3)CCN(CC(=O)O)CC2)n1
assay result: 22
--
line notation: C#CCN(CC#C)CCN1CCN(CC(=O)O)CCN(Cc2cc(-c3ccccc3)cc(CN=[N+]=[N-])n2)CCN(CC(=O)O)CC1
assay result: 0

-- ask Returns the measured conversion to 1,5-cz-[Ln(Lig)], Ho^III for the input compound. Input: C#Cc1cccc(CN2CCN(CC(=O)O)CCN(Cc3cc(C(=O)OC)cc(CN=[N+]=[N-])n3)CCN(CC(=O)O)CC2)n1
-- reply 7

-- ask Report conversion to 1,5-cz-[Ln(Lig)], Ho^III for C#Cc1cccc(CN2CCN(CP(=O)(O)OCC)CCN(Cc3cccc(CN=[N+]=[N-])n3)CCN(CP(=O)(O)OCC)CC2)n1 please.
-- reply 16

-- ask Please give the measured conversion to 1,5-cz-[Ln(Lig)], Ho^III for this compound: [N-]=[N+]=NCc1cccc(CN2CCN(CC(=O)O)CCN(Cc3cccc(C#CC45CC6CC(CC(C6)C4)C5)n3)CCN(CC(=O)O)CC2)n1
-- reply 2

-- ask GET /values?readout=conversion to 1,5-cz-[Ln(Lig)], Ho^III&item= [N-]=[N+]=NCc1cccc(CN2CCN(CC(=O)O)CCN(Cc3cccc(C#CI)n3)CCN(CC(=O)O)CC2)n1
-- reply 4

###

# assay comment: Formation of 1,5-cz-[Ln(Lig)] from Lig and Ln^III ions (metal dependent click-zip), MOPS/NaOH buffer pH 7.0, analytical HPLC (Charts 1, 2)
# details: Pr^III; after 1 week at 80° C.; MOPS/NaOH buffer pH 7.0
Measured conversion to 1,5-cz-[Ln(Lig)], Pr^III of individual entries
Report the value in % with no unit label.

Answered examples (3):
line notation: C#Cc1cccc(CN2CCN(CC(=O)O)CCN(Cc3cc(-c4ccc(C(=O)O)cc4)cc(CN=[N+]=[N-])n3)CCN(CC(=O)O)CC2)n1
readout unit: %
conversion to 1,5-cz-[Ln(Lig)], Pr^III: 66
--
line notation: C#Cc1cccc(CN2CCN(CC(=O)O)CCN(Cc3cc(C(F)(F)F)cc(CN=[N+]=[N-])n3)CCN(CC(=O)O)CC2)n1
readout unit: %
conversion to 1,5-cz-[Ln(Lig)], Pr^III: 35
--
line notation: C#Cc1cccc(CN2CCN(CC(=O)O)CCN(Cc3cc(C(=O)OC)cc(CN=[N+]=[N-])n3)CCN(CC(=O)O)CC2)n1
readout unit: %
conversion to 1,5-cz-[Ln(Lig)], Pr^III: 0

Kindly review the next compound as well.
-- ask I would be grateful if you could share the reported conversion to 1,5-cz-[Ln(Lig)], Pr^III for [N-]=[N+]=NCc1cccc(CN2CCN(CC(=O)O)CCN(Cc3cccc(C#CC4CCNCC4)n3)CCN(CC(=O)O)CC2)n1 .
-- reply 15
